targetUnderTest: T1, APOBEC2 (Mus musculus, UniProt Q9WV35 1-224)
T1 sequence: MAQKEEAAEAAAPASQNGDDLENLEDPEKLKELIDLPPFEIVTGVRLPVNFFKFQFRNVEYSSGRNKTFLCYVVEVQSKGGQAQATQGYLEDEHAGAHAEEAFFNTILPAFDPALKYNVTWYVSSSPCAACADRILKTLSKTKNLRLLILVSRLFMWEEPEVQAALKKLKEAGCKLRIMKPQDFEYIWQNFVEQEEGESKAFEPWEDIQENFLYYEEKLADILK
experimentalDetails: MST
readoutLabel: Kd (nM)
Reply with just the number (in nM).

Q: What value of Kd has been recorded for this entry: SP/KLF motif dsDNA (dsDNA) DNA 1: GGCGGCGCGGCCCCGCCCCCTCCTCCGGC DNA 2: GCCGGAGGAGGGGGCGGGGCCGCGCCGCC
Ans: 709
